- Test system: UO-31 renal
- Assay notes: NCI-60 one-dose screen, 48 h (100 = growth as untreated, 0 = no growth, -100 = all killed)
- Measurement setup: 10 µM unless noted
About 83,000 compounds went through this panel and 20% of them were active in at least one assay; those are over-represented in the sample as a whole. Calls of active or inactive are those of the source. The calls were made as follows: active = growth percent below 10; inactive = the rest.
Endpoint name: growth

Incoming: Sample O=C(Nc1cccnc1Nc1ccc(Cl)cc1)c1cn(Cc2ccc(F)cc2)nn1 — what was its growth?
Outgoing: 70.9% (inactive)

Incoming: Now the same for Cn1c(=O)c2c(nc(NC3=NS(=O)(=O)c4ccccc43)n2Cc2ccccc2)n(C)c1=O
Outgoing: 81.2% (inactive)

Incoming: Now the same for COc1ccc(/C=C/C(=O)c2ccc(NC(=O)CSc3nnc(-c4cc(-c5ccccc5)nc5ccccc45)n3-c3ccccc3)cc2)cc1
Outgoing: 100% (inactive)

Incoming: Now the same for O=C1/C(=C/c2cccc([N+](=O)[O-])c2)COc2ccc(O)cc21
Outgoing: 22.4% (inactive)

Incoming: Now the same for Cc1ccc(C(=O)c2ccc(CC(=O)N/N=C/c3ccc(O)cc3O)n2C)cc1
Outgoing: 19.8% (inactive)

* * *

- System: UO-31 renal
- Assay notes: NCI-60 one-dose screen, 48 h
- Measurement setup: 10 µM unless noted
About 83,000 compounds went through this panel and 20% of them were active in at least one assay; those are over-represented in the sample as a whole. Activity calls are given as the source filed them. How the source made its calls: active means growth percent below 10; inactive means the rest.
Reply using exactly one outcome from yes = active, no = inactive

Incoming: How did this test come out for CCC(CC)(N(CC(=O)O)CC(=O)O)C(CC)(CC)N(CC(=O)O)CC(=O)O ?
Outgoing: no

Incoming: Now the same for COc1ncc2cc1NS(=O)(=O)c1cccc(c1)C(=O)NCC1=CC=C(S1)c1ncnc3c1SC2=C3C
Outgoing: yes

Incoming: Now the same for Cc1c2ccccc2nc2c1ccc1cccnc12
Outgoing: no

Incoming: Now the same for O=c1nc(Nc2nc3ccccc3s2)[nH]c(=O)c2ccccc12
Outgoing: no

Incoming: Now the same for CC(/C=C1\SC(=S)N(CC(=O)NC(Cc2c[nH]c3ccccc23)C(=O)O)C1=O)=C\c1ccccc1 (stereo not given)
Outgoing: no

* * *

- Tested on: NCI-H23 lung
- Assay notes: NCI-60 one-dose screen, 48 h
- Measurement setup: 10 µM unless noted
This is part of a sample that, as a whole, favours compounds with a hit. Of some 83,000 tested, about 20% had one in any assay. The source made the active and inactive calls. Rule for the calls: active = growth percent below 10; inactive = the rest.
Reply using exactly one outcome from 1 (yes) (active), 0 (no) (inactive)

Incoming: How did this test come out for Cn1cc(-c2nonc2-c2c[nH]c3ccc(F)cc23)c2cc(Br)ccc21 ?
Outgoing: 0 (no)

Incoming: Now the same for COc1cccc(OC)c1Oc1c(-c2nc3ccccc3s2)c(C)nn1-c1ccccc1
Outgoing: 0 (no)

Incoming: Now the same for CCNC(=O)Oc1ccc(/C(=C(/C)Cc2ccc(OC)cc2)c2ccc(OCCN3CCCC3)cc2)cc1
Outgoing: 0 (no)

Incoming: Now the same for C#CCOc1cccc(-c2ncc3cc(NC(=O)CCl)ccc3n2)c1
Outgoing: 1 (yes)

Incoming: Now the same for COc1ccc(OC)c(-c2cn3nc(-c4c[nH]c5ccc(Br)cc45)sc3n2)c1
Outgoing: 0 (no)

Incoming: Now the same for COc1cccc(Nc2ccnc3[nH]c4ccc([N+](=O)[O-])cc4c23)c1
Outgoing: 0 (no)

Incoming: Now the same for O=C(Nc1ccccc1O)c1ccccc1Nc1ccnc(C(F)(F)F)c1
Outgoing: 0 (no)

Incoming: Now the same for COc1ccc2cc(Cn3cc[n+](Cc4ccc5ccccc5c4)c3)ccc2c1
Outgoing: 0 (no)

Incoming: Now the same for Nc1ccc([N+](=O)[O-])cc1N=C/C=C/c1ccccc1
Outgoing: 0 (no)

Incoming: Now the same for COc1cccc(/C=C2\COc3ccc(O)cc3C2=O)c1
Outgoing: 0 (no)

Incoming: Now the same for N#Cc1c(N2CCOCC2)nc(=S)[nH]c1-c1ccccc1
Outgoing: 0 (no)

Incoming: Now the same for CCCCCCCCn1ccc2cc(NC(=O)Cn3cc(CN4CCC(C)CC4)nn3)ccc21
Outgoing: 0 (no)

Incoming: Now the same for N#C/C(=C\c1ccc(-c2ccc(Cl)cc2)o1)c1ccc(Cl)cc1
Outgoing: 0 (no)

Incoming: Now the same for O=C(NCc1ccc2c(c1)OCO2)NCC1CCCC(CNC(=O)NCc2ccc3c(c2)OCO3)C1 (stereo not given)
Outgoing: 0 (no)

Incoming: Now the same for C/C(=C(/c1ccc(Cl)cc1)c1ccc(OCCCN(C)C)cc1)c1ccc(Cl)cc1
Outgoing: 0 (no)

Incoming: Now the same for Cn1cc(-c2ccc3cc(-c4ccc(CC(=O)Nc5cc(C(C)(C)C)on5)cc4)cnc3c2)cn1
Outgoing: 0 (no)

Incoming: Now the same for CCCCCn1sc(=O)n(Cc2ccc(CNC(=O)OCc3ccc4c(Cl)cc(Cl)c(O)c4n3)cc2)c1=O
Outgoing: 0 (no)

Incoming: Now the same for COc1cc(-c2nc(NC(C)=O)sc2-c2ccnc(NCCNS(=O)(=O)c3ccccc3)n2)ccc1Cl
Outgoing: 0 (no)

Incoming: Now the same for S=c1[nH]c2cc(Cl)ccc2o1
Outgoing: 0 (no)

Incoming: Now the same for CC1(C)OC(=O)C(=Cc2cccc(Br)c2)C(=O)O1
Outgoing: 0 (no)

Incoming: Now the same for O=C(/C=C/C12c3ccccc3C(c3ccccc31)C1C(=O)NC(=O)C12)c1ccc(F)cc1 (stereo not given)
Outgoing: 1 (yes)

Incoming: Now the same for COc1ccc2nc3ccccc3c(NCc3ccc(F)cc3)c2c1
Outgoing: 0 (no)

Incoming: Now the same for CCCCCCOC(=O)CC1=C(C)/C(=C/c2[nH]c(-c3ccc[nH]3)cc2OC)N=C1C
Outgoing: 1 (yes)

Incoming: Now the same for C=CCn1c(SCC(=O)Nc2ccc(C(=O)/C=C/c3ccc(OC)cc3)cc2)nnc1-c1ccccc1
Outgoing: 0 (no)

Incoming: Now the same for N#Cc1c(NC(=O)c2cccs2)[n+]([O-])c2ccc(Cl)cc2[n+]1[O-]
Outgoing: 0 (no)

Incoming: Now the same for O=C1CCC(C(=O)NN(c2ccccc2)c2ccccc2)N1 (stereo not given)
Outgoing: 0 (no)

Incoming: Now the same for CC(=O)N/C(=C1/OC(C(O)C(O)C(O)CO)CN1C)[P+](c1ccccc1)(c1ccccc1)c1ccccc1 (stereo not given)
Outgoing: 0 (no)

Incoming: Now the same for COCC[C@H]1CCC/C=C/[C@@H]2C[C@H](O)C[C@H]2[C@H](O)/C=C/C(=O)O1
Outgoing: 1 (yes)

Incoming: Now the same for CCCCCCCCCCCCCCCCCCOc1ccccc1CC(=O)OCC[N+]1(C)CCOCC1
Outgoing: 0 (no)

Incoming: Now the same for O=C(CCCCNC(=O)c1cc(=O)c(O)co1)Nc1ccccc1
Outgoing: 0 (no)

Incoming: Now the same for CCNC(=O)Oc1ccc(/C(=C(/C)Cc2ccc(OC)cc2)c2ccc(OCCN3CCCCCC3)cc2)cc1
Outgoing: 0 (no)

Incoming: Now the same for CCN(CC)CCOc1ccc(Nc2ncc3cc(-c4ccc(O)cc4)c(=O)n(C)c3n2)cc1
Outgoing: 0 (no)

Incoming: Now the same for N=c1sc(Cc2cc(Cl)ccc2Cl)cn1CC(=O)c1ccccc1
Outgoing: 0 (no)

Incoming: Now the same for CCOC(=O)c1c(C)c2c(n1C)CSc1cc(S(=O)(=O)c3ccccc3)c(=O)[nH]c1-2
Outgoing: 0 (no)

Incoming: Now the same for CCN1C(=O)N(CC)C2C1NN=c1s/c(=C3\C(=O)N(CCc4ccccc4)c4ccccc43)c(=O)n12 (stereo not given)
Outgoing: 0 (no)

Incoming: Now the same for CNC(=O)c1cc(Oc2ccc3nc(NC(=O)Nc4ccc(Cl)c(Cl)c4)sc3c2)ccn1
Outgoing: 0 (no)

Incoming: Now the same for O=C1/C(=C/c2ccc(C(F)(F)F)cc2)COc2ccc(O)cc21
Outgoing: 0 (no)

Incoming: Now the same for COc1ccccc1-n1c(-c2cc(O)ccc2C)cn2c3c(=O)[nH]c(=O)n(C)c3nc12
Outgoing: 0 (no)

Incoming: Now the same for Fc1ccc(COc2ccc(Nc3ncnc4sc5c(c34)CCCC5)cc2)cc1
Outgoing: 0 (no)

Incoming: Now the same for O=C1/C(=C/c2ccc(Br)cc2)COc2ccc(O)c(O)c21
Outgoing: 0 (no)

* * *

- System: TK-10 renal
- Assay notes: NCI-60 one-dose screen, 48 h (100 = growth as untreated, 0 = no growth, -100 = all killed)
- Measurement setup: 10 µM unless noted
This is part of a sample that, as a whole, favours compounds with a hit. Of some 83,000 tested, about 20% had one in any assay.
Response field label takes 1 (yes) when growth is strictly below 60% and 0 (no) in all other cases.

Incoming: Hi there! Is growth for COc1ccc(C2=NN(C(C)=O)C(c3ccc(Oc4ccnc5cc(Cl)ccc45)c(OC)c3)C2)cc1 (stereo not given) below 60%, do you know?
Outgoing: 1 (yes)

Incoming: Now the same for O=c1[nH]cnc2c1C(c1ccc(Br)cc1)c1sc3c(F)cccc3c1O2 (stereo not given)
Outgoing: 0 (no)

Incoming: Now the same for O=C1Nc2ccc(F)cc2/C1=C\c1nc(-c2ccccc2F)n2ccccc12
Outgoing: 0 (no)

Incoming: Now the same for COc1ccc(-c2ccc(=O)oc2C#Cc2cc(OC)c(OC)c(OC)c2)cc1O
Outgoing: 1 (yes)
